Structures can show the parent of a compound that is named as a salt.
Please go through the items and note down their melting point.

**Query** Quick one: melting point for CCN(CC)CC[n+]1cccc(C(=O)OC)c1 (as salt: iodide) ?
**Result** 172 to 174 °C

**Query** Quick one: melting point for COC(=O)c1ccc[n+](CCC(N)=O)c1 (as salt: iodide) ?
**Result** 98 to 100 °C

**Query** Quick one: melting point for CCN(CC)C(=O)C[n+]1cccc(C(=O)OC)c1 (as salt: iodide) ?
**Result** 163 to 165 °C

* * *

Structures can show the parent of a compound that is named as a salt.
READOUT_LABEL: melting point

**Query** Quick one: melting point for O=C(O)c1ccc[n+](Cc2ccccc2)c1 (as salt: bromide) ?
**Result** 203 to 205 °C

**Query** Quick one: melting point for CCC[n+]1cccc(C(=O)O)c1 (as salt: iodide) ?
**Result** 162 to 165 °C

**Query** Quick one: melting point for CCN(CC)C(=O)C[n+]1cccc(C(=O)O)c1 (as salt: iodide) [Example 10] ?
**Result** 97 to 100 °C

**Query** Quick one: melting point for NC(=O)CC[n+]1cccc(C(=O)O)c1 (as salt: iodide) [Example 11] ?
**Result** 170 to 173 °C

**Query** Quick one: melting point for COC(=O)c1ccc[n+](CCCC#N)c1 (as salt: iodide) ?
**Result** 167 to 170 °C
